# System: TNFα production in human whole blood
# assayComment: Inhibition of the production of TNFα in vitro in human whole blood (Test Examples 1 and 1′)
# Format: cell-based
# condition: Table 7′, lipopolysaccharide 10 μg/ml, 6 hours at 37° C., plasma TNFα by ELISA, least squares, read-out: Inhibitory Effect on TNFα Production (in vitro) IC50
pIC50: −log10 of the molar value.
Catalogue of compounds with associated pIC50

- compound: "CO[C@H]1C[C@H]2C=C(c3c[nH]c(-c4ccc(F)cc4)c3-c3ccncc3)CCN2C1 [Example 21′]"
  pIC50: 7.34
- compound: "CC1C[C@H]2C=C(c3c[nH]c(-c4ccc(F)cc4)c3-c3ccncc3)CCN2C1 (stereo partly shown) [Example 16′]"
  pIC50: 8.66
- compound: "CCCCS[C@H]1C[C@H]2C=C(c3c[nH]c(-c4ccc(F)cc4)c3-c3ccncc3)CCN2C1 [Example 34′]"
  pIC50: 7.34
- compound: "CC1=CC2C=C(c3c[nH]c(-c4ccc(F)cc4)c3-c3ccncc3)CCN2C1 (stereo in doubt) [Example 31′]"
  pIC50: 8.62
- compound: "CC1(C)C[C@H]2C=C(c3c[nH]c(-c4ccc(F)cc4)c3-c3ccncc3)CCN2C1 [Example 27′]"
  pIC50: 8.42
- compound: "CCS[C@H]1C[C@H]2C=C(c3c[nH]c(-c4ccc(F)cc4)c3-c3ccncc3)CCN2C1 [Example 36′]"
  pIC50: 7.74
- compound: "C=C1C[C@H]2C=C(c3c[nH]c(-c4ccc(F)cc4)c3-c3ccncc3)CCN2C1 [Example 23′]"
  pIC50: 8.43
- compound: "CCC[C@H]1C[C@H]2C=C(c3c[nH]c(-c4ccc(F)cc4)c3-c3ccncc3)CCN2C1 [Example 43′]"
  pIC50: 8.22
- compound: "O[C@@H]1C[C@H]2C=C(c3c[nH]c(-c4ccc(F)cc4)c3-c3ccncc3)CCN2C1 [Example 4′]"
  pIC50: 7.27
- compound: "CC=C1C[C@H]2C=C(c3c[nH]c(-c4ccc(F)cc4)c3-c3ccncc3)CCN2C1 [Example 37′]"
  pIC50: 8.00
- compound: "Fc1ccc(-c2[nH]cc(C3=C[C@@H]4CCCN4CC34CC4)c2-c2ccncc2)cc1 [Example 19′]"
  pIC50: 7.36
- compound: "Fc1ccc(-c2[nH]cc(C3=C[C@@H]4CC5(CN4CC3)OCCO5)c2-c2ccncc2)cc1 [Example 14′]"
  pIC50: 8.40
- compound: "Fc1ccc(-c2[nH]cc(C3=C[C@@H]4C[C@H](c5ccccc5)CN4CC3)c2-c2ccncc2)cc1 [Example 12′]"
  pIC50: 8.60
- compound: "Fc1ccc(-c2[nH]c(C3CCNCC3)cc2-c2ccncc2)cc1 [Compound A, reference compound]"
  pIC50: 5.72
- compound: "CS[C@H]1C[C@H]2C=C(c3c[nH]c(-c4ccc(F)cc4)c3-c3ccncc3)CCN2C1 [Example 29′]"
  pIC50: 8.44
- compound: "Fc1ccc(-c2ncn(C3CCNCC3)c2-c2ccncc2)cc1 [Compound B, reference compound]"
  pIC50: 5.76

Measured values drawn from patent US7122666B2 for this set.
